Heads up, these compounds all have pKi values measured for Kappa-type opioid receptor (Cavia porcellus, UniProt P41144).
Interpret pKi as the negative base-10 log of the concentration measured in mol/L.

[[record]]
compound_structure = "CC[C@H](C)[C@H](NC(=O)[C@H](CCCNC(=N)N)NC(=O)[C@H](CCCNC(=N)N)NC(=O)[C@H](CC(C)C)NC(=O)[C@H](Cc1ccccc1)NC(=O)CNC(=O)CNC(=O)CCc1ccc(O)cc1)C(=O)N[C@@H](CCCNC(=N)N)C(=O)N1CCC[C@H]1C(=O)N[C@@H](CCCCN)C(N)=O"
tested_on = "Kappa-type opioid receptor (Cavia porcellus, UniProt P41144)"
readout_number = 7.51


Sure, the documented pKi for CC[C@H](C)[C@H](NC(=O)[C@H](CCCN=C(N)N)NC(=O)[C@H](CCCN=C(N)N)NC(=O)[C@H](CC(C)C)NC(=O)[C@H](Cc1ccccc1)NC(=O)[C@@H](C)NC(=O)CNC(=O)[C@@H](C)Cc1c(C)cc(O)cc1C)C(=O)N[C@@H](CCCN=C(N)N)C(=O)N1CCC[C@H]1C(=O)N[C@@H](CCCCN)C(N)=O is 8.61

For record CC[C@H](C)[C@H](NC(=O)[C@H](CCCN=C(N)N)NC(=O)[C@H](CCCN=C(N)N)NC(=O)[C@H](CC(C)C)NC(=O)[C@H](Cc1ccccc1)NC(=O)[C@@H](C)NC(=O)CNC(=O)CCc1c(C)cc(O)cc1C)C(=O)N[C@@H](CCCN=C(N)N)C(=O)N1CCC[C@H]1C(=O)N[C@@H](CCCCN)C(N)=O the listed pKi is 8.42

So, CC[C@H](C)[C@H](NC(=O)[C@H](CCCNC(=N)N)NC(=O)[C@H](CCCNC(=N)N)NC(=O)[C@H](CC(C)C)NC(=O)[C@H](Cc1ccccc1)NC(=O)CNC(=O)CNC(=O)CCc1c(C)cc(O)cc1C)C(=O)N[C@@H](CCCNC(=N)N)C(=O)N1CCC[C@H]1C(=O)N[C@@H](CCCCN)C(N)=O ? Its pKi was 8.46

Recorded result, Oc1ccc2c3c1O[C@H]1c4[nH]c5c(c4C[C@@]4(O)[C@@H](C2)N(CC2CC2)CC[C@]314)C[C@@]1(O)[C@H]2Cc3ccc(O)c4c3[C@@]1(CCN2CC1CC1)[C@H]5O4 , pKi: 9.09

Where do these numbers come from? They come from ChEMBL document CHEMBL1134588.
